- subjectOfTest: hCA II (Homo sapiens, UniProt P00918)
- assayComment: hCA II esterase activity inhibition (Verpoorte method, p-nitrophenylacetate)
- Assay type: biochemical
- settings: Table 2
readoutName: IC50 (nM)
Numbers only, in nM.

Solved entries (count: 3):
- smilesRecord: "O=C(/C=C/c1c(-c2ccccc2)nc2sc(SCc3ccc(F)cc3)nn12)c1ccc(Cl)cc1"
  IC50, nM: 34.1
- smilesRecord: "O=C(/C=C/c1c(-c2ccccc2)nc2sc(SCc3ccccc3)nn12)c1ccc(Cl)cc1"
  IC50, nM: 49.3
- smilesRecord: "COc1ccc(C(=O)/C=C/c2c(-c3ccccc3)nc3sc(SCc4ccc(F)cc4)nn23)cc1"
  IC50, nM: 30.2

From here, focus on the item given below.
Recorded IC50 for COc1ccc(C(=O)/C=C/c2c(-c3ccccc3)nc3sc(SCc4ccccc4)nn23)cc1 , please? 41.1
